Assay: self-splicing fitness, log relative to wild type (ln ratio); higher = more splicing; Tetrahymena group I intron in knt gene, E. coli kanamycin selection, DiMSum; sequences stand for … in CUCUCU…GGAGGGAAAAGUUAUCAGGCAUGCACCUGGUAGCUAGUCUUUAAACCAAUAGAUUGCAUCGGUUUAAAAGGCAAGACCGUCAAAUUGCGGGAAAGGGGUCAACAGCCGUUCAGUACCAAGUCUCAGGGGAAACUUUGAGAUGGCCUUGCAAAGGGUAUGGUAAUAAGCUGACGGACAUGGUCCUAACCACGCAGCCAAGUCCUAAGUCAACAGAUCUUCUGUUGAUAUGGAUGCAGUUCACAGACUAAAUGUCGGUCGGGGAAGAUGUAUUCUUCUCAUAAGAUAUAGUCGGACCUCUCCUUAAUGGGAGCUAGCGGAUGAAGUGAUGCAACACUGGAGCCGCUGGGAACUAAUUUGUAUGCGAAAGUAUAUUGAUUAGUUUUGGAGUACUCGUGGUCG;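 also: selection with 25 µg/mL kanamycin versus none on LB agar overnight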
Settings: 37 °C
self-splicing fitness (ln) for assorted sequences
result.type: self-splicing fitness (ln)

{"columns": ["ordered.residues", "recorded.result"],
 "data": [
  ["UGUAAGCAAUAUUACGGUUA", -0.0116],
  ["ACAAAGCAAUAUUACGUAGG", -1.55],
  ["UUUGAGCAAUAUUACGGUAG", -2.41],
  ["AAUGAGCAAUAUUACGCUAA", -1.9],
  ["AUGAAGCAAUAUUACGCUCU", 0.111],
  ["CCCCAGCAAUAUUACGGCCC", -1.64],
  ["AGCCAGCAAUAUUACGGGGG", -1.99],
  ["AACUAGCAAUAUUACGUUCU", -1.14],
  ["AAGGAGCAAUAUUACGCGCU", -1.5],
  ["AUGGAGCAAUAUUACGGUGU", -0.816],
  ["GCAAAGCAAUAUUACGUUAC", -1.3],
  ["ACGCAGCAAUAUUACGUACU", -0.434],
  ["UCUGAGCAAUAUUACGUACC", -1.96],
  ["UACAAGCAAUAUUACGUACC", -1.93],
  ["CACUAGCAAUAUUACGCUGG", -1.87],
  ["ACGCAGCAAUAUUACGCCUC", -1.22],
  ["AGUGAGCAAUAUUACGUGGG", -2.51],
  ["AUUUAGCAAUAUUACGUUUU", -2.25],
  ["ACACAGCAAUAUUACGGCCA", -1.17],
  ["UGACAGCAAUAUUACGCUGU", -3.42],
  ["GACCAGCAAUAUUACGGGGG", -1.17],
  ["CCUUAGCAAUAUUACGGAAU", -3.15],
  ["ACUAAGCAAUAUUACGGGCG", -0.529],
  ["ACGUAGCAAUAUUACGGCAG", -2.61],
  ["GCAUAGCAAUAUUACGCCAG", -2.94],
  ["GUAAAGCAAUAUUACGGGGU", -2.25],
  ["UAAUAGCAAUAUUACGUACA", -0.0465],
  ["CACUAGCAAUAUUACGCCCG", 0.619],
  ["CGCGAGCAAUAUUACGGACA", -0.573],
  ["CUUUAGCAAUAUUACGUUGG", -1.86],
  ["UGGCAGCAAUAUUACGUGGA", -1.02],
  ["ACGUAGCAAUAUUACGUACG", -1.35],
  ["ACUGAGCAAUAUUACGUAAG", -0.834],
  ["GGAAAGCAAUAUUACGGUCG", -0.296],
  ["ACCCAGCAAUAUUACGGUAU", -0.154],
  ["UUCCAGCAAUAUUACGAAAU", -1.58],
  ["CCUUAGCAAUAUUACGUGUA", -1.47],
  ["UAGUAGCAAUAUUACGUAUG", -0.711],
  ["CGAUAGCAAUAUUACGGAGG", -1.17],
  ["UCUUAGCAAUAUUACGCAGA", -1.36],
  ["GGUUAGCAAUAUUACGCGGA", -1.34],
  ["UUCGAGCAAUAUUACGUCAG", 0.987],
  ["CACGAGCAAUAUUACGGUCU", -1.73],
  ["GCUUAGCAAUAUUACGCAAA", -1.51],
  ["UGCAAGCAAUAUUACGCAGA", -1.75],
  ["ACGAAGCAAUAUUACGCUAU", -1.48],
  ["UUACAGCAAUAUUACGUUAC", -3.03],
  ["AGAUAGCAAUAUUACGCACC", 0.267],
  ["GCGAAGCAAUAUUACGCUUA", -0.759],
  ["CUUCAGCAAUAUUACGCCGU", -2.05],
  ["AAGCAGCAAUAUUACGCAUA", -0.237],
  ["AGUGAGCAAUAUUACGACUU", -0.93],
  ["AGCAAGCAAUAUUACGGAUA", -1.77],
  ["ACCGAGCAAUAUUACGAGCA", -1.99],
  ["UCUUAGCAAUAUUACGACAA", -1.18],
  ["GCCUAGCAAUAUUACGGGUA", 0.611],
  ["CACCAGCAAUAUUACGGAUU", -1.36],
  ["CCUCAGCAAUAUUACGUGGC", -3.01],
  ["CCACAGCAAUAUUACGACAA", -1.91],
  ["GGAUAGCAAUAUUACGAAGA", -1.82],
  ["UACCAGCAAUAUUACGGUAG", -1.16],
  ["AUGAAGCAAUAUUACGGGGG", -2.49],
  ["UUUAAGCAAUAUUACGCGAG", 0.0933],
  ["AGCAAGCAAUAUUACGAACG", -0.449],
  ["CCACAGCAAUAUUACGUUGC", -2.73],
  ["ACCAAGCAAUAUUACGGACA", -0.38],
  ["CUACAGCAAUAUUACGGCGU", -2.94]
]}
